# Tested on: Prostate cancer LNcap
# TEST_DESCRIPTION: in vitro anti-tumor activity assay (MTT method)
# Type: cell-based, human
# ASSAY_SETUP: culture medium RPMI-1640, 48 h of culture
METRIC_NAME: pIC50
Scale explanation: pIC50 corresponds to minus log10 of a concentration expressed in moles per litre.

Lab note: measured pIC50 of N.N.[Cl][Pt][Cl] [Cisplati num, Cisplatinum] was 4.94

====

# Test system: Lung cancer A549
# TEST_DESCRIPTION: in vitro anti-tumor activity assay (MTT method)
# Assay type: cell-based, human
# ASSAY_SETUP: Lung cancer A549, culture medium F12, 48 h of culture
# Experimental: Five human tumor cell lines were selected and cultured in RPMI-1640 (Gibco) or DMEM (Gibco) or GMEM/F12 medium (Gibco) containing 10% inactivated fetal bovine serum, 100 U/ml penicillin and […] streptomycin in an incubator containing 5% CO2 at 37°C. […] Absorbance (A492nm) was measured by a microplate reader to calculate the inhibition rate of the drug on tumor cells. IC50 values of compounds on tumor cells were calculated using GraphPad software. […]
METRIC_NAME: IC50 (µM)
Your answer should be a plain number; it is taken to be in µM.

Lookup result for N.N.[Cl][Pt][Cl] [Cisplati num, Cisplatinum] ; measured IC50: 34

====

# System: Liver cancer HepG2
# TEST_DESCRIPTION: in vitro anti-tumor activity assay (MTT method)
# Type: cell-based, human
# ASSAY_SETUP: Liver cancer HepG2, culture medium High-sugar DMEM, 48 h of culture
METRIC_NAME: pIC50
pIC50 here is simply -log10 of the concentration when that concentration is written in mol/L.

Entry N.N.[Cl][Pt][Cl] [Cisplati num, Cisplatinum] — recorded pIC50 = 4.51
